- TARGET DESC: M2 receptors (Rattus norvegicus, UniProt P10980)
- Sequence (P10980 whole entry): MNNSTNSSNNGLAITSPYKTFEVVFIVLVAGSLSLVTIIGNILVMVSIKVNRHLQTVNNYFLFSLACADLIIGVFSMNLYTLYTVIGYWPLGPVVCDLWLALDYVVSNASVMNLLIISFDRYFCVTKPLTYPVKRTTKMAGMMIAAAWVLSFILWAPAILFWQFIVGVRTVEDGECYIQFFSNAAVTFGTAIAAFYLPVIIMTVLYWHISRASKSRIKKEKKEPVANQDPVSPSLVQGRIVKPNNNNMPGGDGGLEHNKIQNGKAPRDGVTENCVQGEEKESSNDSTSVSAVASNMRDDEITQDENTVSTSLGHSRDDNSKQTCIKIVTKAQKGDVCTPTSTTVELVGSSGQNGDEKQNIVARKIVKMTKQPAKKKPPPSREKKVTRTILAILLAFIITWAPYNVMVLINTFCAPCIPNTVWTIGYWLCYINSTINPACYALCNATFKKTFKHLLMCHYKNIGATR
- TEST DETAILS: biochemical
- Type: binding
- EXPERIMENTAL CONDITIONS: read-out: ^3 H-QNB M2 IC50
OUTCOME MEASURE: pIC50
Value format note: pIC50 is -log10 of concentration (mol/L); just state the number.

Query :: Which pIC50 is reported for this molecule? Cc1cc(NCCCN2CCOCC2)nc2ccccc12 [Example 1, hydrate]
Result :: 4.16

Query :: Which pIC50 is reported for this molecule? Cc1cc(NCCN2CCOCC2)nc2ccccc12 [Example 5, hydrate]
Result :: 3.70

Query :: Which pIC50 is reported for this molecule? CCc1cc(NCCCN2CCOCC2)nc2ccccc12 [Example 9, hydrate]
Result :: 4.36

Query :: Which pIC50 is reported for this molecule? Cc1cc(NCCCN2CCCCC2)nc2ccccc12 [Example 8, hemihydrate]
Result :: 5.34
